I'd be grateful if you could share measured Kd for these entries.
Tested Target: T1, rat α-CGRP (1-37) (rat, C-terminal amide; N-terminal biotin when captured on the SA chip)
T1 construct: also called rat α (1-37); α-rat
T1 peptide: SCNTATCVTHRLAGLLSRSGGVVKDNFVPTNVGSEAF
Protocol Summary: Biacore, 37°C, Fab over CGRP on SA chip
Experimental: Biacore assay for affinity determination. […] All Biacore assays were conducted in HBS-EP running buffer (10 mM HEPES pH 7.4, 150 mM NaCl, 3 mM EDTA, 0.005% v/v polysorbate P20). CGRP surfaces were prepared by diluting the N-biotinylated CGRP to a concentration of less than 0.001 mg/mL into HBS-EP buffer and injecting it across the SA sensor chip using variable contact times. […] Samples were typically injected for 1 minute at 100 μL/min and dissociation times of at least 10 minutes were allowed. […]
One number for each entry, in nM.

Binder: G1 variant M36 Fab (Fab, V domains shown, Fab; constant domains as m1) VH: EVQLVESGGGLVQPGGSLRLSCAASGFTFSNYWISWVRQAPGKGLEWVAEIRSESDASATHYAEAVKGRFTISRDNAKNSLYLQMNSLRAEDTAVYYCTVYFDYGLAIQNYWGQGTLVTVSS VL: EIVLTQSPATLSLSPGERATLSCKASKNVRTYVSWYQQKPGQAPRLLIYGASNRYLGIPARFSGSGSGTDFTLTISSLEPEDFAVYYCSQSYNYPYTFGQGTKLEIK
Kd [nM]: 266

Output measured Kd for this item: G1 variant M62 Fab (Fab, V domains shown, Fab; constant domains as m1) VH: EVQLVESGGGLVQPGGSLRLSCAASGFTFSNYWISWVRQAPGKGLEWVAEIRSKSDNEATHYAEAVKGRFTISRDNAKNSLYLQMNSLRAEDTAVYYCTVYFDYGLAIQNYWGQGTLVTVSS VL: EIVLTQSPATLSLSPGERATLSCKASKNVGTYVSWYQQKPGQAPRLLIYGHSNRYTGIPARFSGSGSGTDFTLTISSLEPEDFAVYYCSQSYNYPYTFGQGTKLEIK 242
